system: P. falciparum 3D7 growth, pLDH absorbance; experiment: blood-stage malaria parasite growth potency – strain 3D7, dose response (AID 2305)
readout-kind: IC50 (nM)
The reply should be a number in nM, with the unit left off.

Clc1cccc(CNC2CCN(CC3CCCCC3)CC2)c1 : 910

Q: Name the recorded IC50 for NC(=O)Nc1ccc2c(Nc3ccc(OCc4ccccc4)cc3)ncnc2c1 .
Result: 1260

Q: And for Cc1cc(-c2nc3ccc(C(=O)NCc4ccccc4)cc3n2C2CCN(C(=O)c3ccc(-c4ccccc4)cc3)CC2)ccn1 ?
Result: 900

Q: And for CN(C)C(=NCCCCCCN=C(NC(N)=NCc1ccc(Cl)c(Cl)c1)N(C)C)NC(N)=NCc1ccc(Cl)c(Cl)c1 ?
Result: 300

Q: And for Cn1nc(-c2ccc(NC(=O)Nc3cc(C(F)(F)F)ccc3F)c(F)c2)c2cnc(NCCCn3ccnc3)nc21 ?
Result: 740
